B1: Hairpin Ribozyme (parent)
chain: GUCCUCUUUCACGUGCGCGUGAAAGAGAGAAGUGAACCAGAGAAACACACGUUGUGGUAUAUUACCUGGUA

variants of: B1; assay: self-cleavage, relative activity (ratio to wild type); higher = more cleavage; co-transcriptional
Reported self-cleavage by item:
Please give only the number in your answer, with no unit.

Example entries and their recorded answers appear below.
* A64G U70A | 0.597
* U8C G19U | 0.582
* C38A G56A | 0.178

Item under review: G32U U60C . Reported self-cleavage?
0.0374

Which self-cleavage value is on record for U9G A35C ?
0.637

What value of measured self-cleavage is listed for U2G A30G ?
0.0671
